Biological target: CH505.M7D8gp120/293F
Experiment: ELISA
LogAUC values, listed per item
API doc: respond with a numeric literal and nothing else, no unit.

- CH491 (antibody, V domains shown, also called CH235.7; DH491) VH: QVQLVQSGAAVKRPGASVTISCRASGYTFTTYYIHWVRQAPGQGLELMGWINPRGGRTDYSYRFEDRVSMYRDTSMSIVYMDLRNLKSADTAVYYCVRNVGTSGSLLHYDFWGQGSLVTVSS VL: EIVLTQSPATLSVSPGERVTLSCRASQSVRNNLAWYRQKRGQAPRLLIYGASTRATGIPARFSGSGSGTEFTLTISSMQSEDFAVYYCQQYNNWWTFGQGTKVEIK: 0

Note: attention shifts to another entry.
CH556 (antibody, V domains shown, also called CH235.11) VH: QVQLVQSGGTVKSPGTSVTLSCKTSGYNFIDYYIHWVRRAPGQRPELMGYIDPSHGRPDYEGKFRDRISLYRDTSTSVVYMDVRGLRLDDTALYYCVRGGGVEVSSNHYDHWGPGTMVFVSP VL: ETTLTQSPDTLSASPGERVTLSCRAAQSVGSQVAWFRHIRGQPPRLLISGASTRAAGVPARFSGSGSGTDFTLTISGMQSEDFAEYFCQQYHMWWTFGQGTRVDKN has a reported LogAUC of 0
